Values were extracted from ChEMBL document CHEMBL1130071.

Target: Mu-type opioid receptor (Homo sapiens) (UniProt P35372)
Sequence (P35372 whole entry): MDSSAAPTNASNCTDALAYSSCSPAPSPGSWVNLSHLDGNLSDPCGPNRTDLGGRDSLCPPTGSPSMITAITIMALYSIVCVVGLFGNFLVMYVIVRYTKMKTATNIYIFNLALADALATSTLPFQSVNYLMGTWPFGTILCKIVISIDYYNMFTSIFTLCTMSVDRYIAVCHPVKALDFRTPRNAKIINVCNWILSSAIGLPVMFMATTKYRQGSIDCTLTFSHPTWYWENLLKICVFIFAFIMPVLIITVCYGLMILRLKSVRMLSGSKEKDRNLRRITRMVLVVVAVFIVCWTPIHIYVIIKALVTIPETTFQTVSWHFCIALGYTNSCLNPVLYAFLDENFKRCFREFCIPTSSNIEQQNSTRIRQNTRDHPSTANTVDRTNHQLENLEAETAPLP
Experiment: Selectivity ratio measured as the delta IC50 to that of mu IC50 values.
Type: functional

Molecule | Target system | Selectivity ratio
Oc1ccc2c3c1O[C@H]1c4[nH]c(-c5ccccc5)c(-c5ccccc5)c4C[C@@]4(O)C(C2)N(CC2CC2)CCC314 (stereo not given in full) | Mu-type opioid receptor (Homo sapiens) (UniProt P35372) | 1
CCCCc1c(C)[nH]c2c1C[C@@]1(O)C3Cc4ccc(O)c5c4C1(CCN3CC1CC1)[C@H]2O5 (stereo not given in full) | Mu-type opioid receptor (Homo sapiens) (UniProt P35372) | 8
Cc1[nH]c2c(c1-c1ccccc1)C[C@@]1(O)C3Cc4ccc(O)c5c4C1(CCN3CC1CC1)[C@H]2O5 (stereo not given in full) | Mu-type opioid receptor (Homo sapiens) (UniProt P35372) | 1.6
O=C1/C(=C/c2ccccc2)C[C@@]2(O)[C@H]3Cc4ccc(O)c5c4[C@@]2(CCN3CC2CC2)[C@H]1O5 | Mu-type opioid receptor (Homo sapiens) (UniProt P35372) | 2.7
Cc1[nH]c2c(c1C)C[C@@]1(O)C3Cc4ccc(O)c5c4C1(CCN3CC1CC1)[C@H]2O5 (stereo not given in full) | Mu-type opioid receptor (Homo sapiens) (UniProt P35372) | 5
Cc1[nH]c2c(c1Cc1ccccc1)C[C@@]1(O)C3Cc4ccc(O)c5c4C1(CCN3CC1CC1)[C@H]2O5 (stereo not given in full) | Mu-type opioid receptor (Homo sapiens) (UniProt P35372) | 50
Oc1ccc2c3c1O[C@H]1c4[nH]cc(-c5ccccc5)c4C[C@@]4(O)C(C2)N(CC2CC2)CCC314 (stereo not given in full) | Mu-type opioid receptor (Homo sapiens) (UniProt P35372) | 0.7
CC(C)Cc1[nH]c2c(c1-c1ccccc1)C[C@@]1(O)C3Cc4ccc(O)c5c4C1(CCN3CC1CC1)[C@H]2O5 (stereo not given in full) | Mu-type opioid receptor (Homo sapiens) (UniProt P35372) | 0.2
CCCCc1c(CC(C)C)[nH]c2c1C[C@@]1(O)C3Cc4ccc(O)c5c4C1(CCN3CC1CC1)[C@H]2O5 (stereo not given in full) | Mu-type opioid receptor (Homo sapiens) (UniProt P35372) | 10
Oc1ccc2c3c1O[C@H]1c4[nH]ccc4C[C@@]4(O)C(C2)N(CC2CC2)CCC314 (stereo not given in full) | Mu-type opioid receptor (Homo sapiens) (UniProt P35372) | 0.03

* * *

Biological target: Kappa-type opioid receptor (Homo sapiens) (UniProt P41145)
Sequence (P41145 whole entry): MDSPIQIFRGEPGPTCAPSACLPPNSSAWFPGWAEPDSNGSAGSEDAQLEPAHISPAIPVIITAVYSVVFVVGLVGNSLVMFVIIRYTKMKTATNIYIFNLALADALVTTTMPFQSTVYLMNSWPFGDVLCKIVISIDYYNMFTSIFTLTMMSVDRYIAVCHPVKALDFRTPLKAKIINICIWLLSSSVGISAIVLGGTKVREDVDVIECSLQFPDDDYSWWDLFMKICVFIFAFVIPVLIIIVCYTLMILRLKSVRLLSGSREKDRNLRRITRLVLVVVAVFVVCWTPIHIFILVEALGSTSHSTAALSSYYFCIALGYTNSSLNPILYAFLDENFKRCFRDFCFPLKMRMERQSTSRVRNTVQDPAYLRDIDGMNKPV
Experiment: Selectivity ratio measured as the delta IC50 to that of kappa IC50 values.
Assay type: functional
Reported Selectivity ratio values for a set of molecules

Molecule | Target system | Selectivity ratio
CCCCc1c(CC(C)C)[nH]c2c1C[C@@]1(O)C3Cc4ccc(O)c5c4C1(CCN3CC1CC1)[C@H]2O5 (stereo not given in full) | Kappa-type opioid receptor (Homo sapiens) (UniProt P41145) | 10
Cc1[nH]c2c(c1Cc1ccccc1)C[C@@]1(O)C3Cc4ccc(O)c5c4C1(CCN3CC1CC1)[C@H]2O5 (stereo not given in full) | Kappa-type opioid receptor (Homo sapiens) (UniProt P41145) | 50
Oc1ccc2c3c1O[C@H]1c4[nH]c(-c5ccccc5)c(-c5ccccc5)c4C[C@@]4(O)C(C2)N(CC2CC2)CCC314 (stereo not given in full) | Kappa-type opioid receptor (Homo sapiens) (UniProt P41145) | 1
Oc1ccc2c3c1O[C@H]1c4[nH]ccc4C[C@@]4(O)C(C2)N(CC2CC2)CCC314 (stereo not given in full) | Kappa-type opioid receptor (Homo sapiens) (UniProt P41145) | 0.17
CC(C)Cc1[nH]c2c(c1-c1ccccc1)C[C@@]1(O)C3Cc4ccc(O)c5c4C1(CCN3CC1CC1)[C@H]2O5 (stereo not given in full) | Kappa-type opioid receptor (Homo sapiens) (UniProt P41145) | 0.2
O=C1/C(=C/c2ccccc2)C[C@@]2(O)[C@H]3Cc4ccc(O)c5c4[C@@]2(CCN3CC2CC2)[C@H]1O5 | Kappa-type opioid receptor (Homo sapiens) (UniProt P41145) | 18
Cc1[nH]c2c(c1-c1ccccc1)C[C@@]1(O)C3Cc4ccc(O)c5c4C1(CCN3CC1CC1)[C@H]2O5 (stereo not given in full) | Kappa-type opioid receptor (Homo sapiens) (UniProt P41145) | 1.6
Oc1ccc2c3c1O[C@H]1c4[nH]cc(-c5ccccc5)c4C[C@@]4(O)C(C2)N(CC2CC2)CCC314 (stereo not given in full) | Kappa-type opioid receptor (Homo sapiens) (UniProt P41145) | 0.7
CCCCc1c(C)[nH]c2c1C[C@@]1(O)C3Cc4ccc(O)c5c4C1(CCN3CC1CC1)[C@H]2O5 (stereo not given in full) | Kappa-type opioid receptor (Homo sapiens) (UniProt P41145) | 17
Cc1[nH]c2c(c1C)C[C@@]1(O)C3Cc4ccc(O)c5c4C1(CCN3CC1CC1)[C@H]2O5 (stereo not given in full) | Kappa-type opioid receptor (Homo sapiens) (UniProt P41145) | 7

* * *

In this section we review reported IC50 ratio values for a set of compounds.
Target: Delta-type opioid receptor (Mus musculus) (UniProt P32300)
Sequence (P32300 whole entry): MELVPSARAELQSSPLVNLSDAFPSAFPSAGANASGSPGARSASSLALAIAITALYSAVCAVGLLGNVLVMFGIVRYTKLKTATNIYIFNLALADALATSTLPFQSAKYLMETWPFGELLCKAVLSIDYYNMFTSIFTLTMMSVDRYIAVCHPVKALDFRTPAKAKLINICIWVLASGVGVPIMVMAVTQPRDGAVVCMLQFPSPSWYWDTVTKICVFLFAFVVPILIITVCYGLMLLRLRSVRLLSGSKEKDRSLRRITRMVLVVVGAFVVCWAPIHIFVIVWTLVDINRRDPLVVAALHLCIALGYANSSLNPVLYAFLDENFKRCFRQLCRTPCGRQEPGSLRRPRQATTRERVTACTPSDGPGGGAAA
Test: Agonist activity in mouse vas deferens assay relative to DADLE
Assay type: functional, tissue-based

Compound | IC50 ratio
Cc1[nH]c2c(c1Cc1ccccc1)C[C@@]1(O)C3Cc4ccc(O)c5c4C1(CCN3CC1CC1)[C@H]2O5 (some centres undefined) | 50
CC(C)Cc1[nH]c2c(c1-c1ccccc1)C[C@@]1(O)C3Cc4ccc(O)c5c4C1(CCN3CC1CC1)[C@H]2O5 (some centres undefined) | 0.76
Oc1ccc2c3c1O[C@H]1c4[nH]c(-c5ccccc5)c(-c5ccccc5)c4C[C@@]4(O)C(C2)N(CC2CC2)CCC314 (some centres undefined) | 1.4
CCCCc1c(CC(C)C)[nH]c2c1C[C@@]1(O)C3Cc4ccc(O)c5c4C1(CCN3CC1CC1)[C@H]2O5 (some centres undefined) | 9.8
Oc1ccc2c3c1O[C@H]1c4[nH]cc(-c5ccccc5)c4C[C@@]4(O)C(C2)N(CC2CC2)CCC314 (some centres undefined) | 1.5
Cc1[nH]c2c(c1-c1ccccc1)C[C@@]1(O)C3Cc4ccc(O)c5c4C1(CCN3CC1CC1)[C@H]2O5 (some centres undefined) | 1.6
Cc1[nH]c2c(c1C)C[C@@]1(O)C3Cc4ccc(O)c5c4C1(CCN3CC1CC1)[C@H]2O5 (some centres undefined) | 7.7
CCCCc1c(C)[nH]c2c1C[C@@]1(O)C3Cc4ccc(O)c5c4C1(CCN3CC1CC1)[C@H]2O5 (some centres undefined) | 16.8
Cc1c(CC(C)C)[nH]c2c1C[C@@]1(O)C3Cc4ccc(O)c5c4C1(CCN3CC1CC1)[C@H]2O5 (some centres undefined) | 32

* * *

Biological target: Kappa-type opioid receptor (Mus musculus, UniProt P33534)
Sequence (P33534 whole entry): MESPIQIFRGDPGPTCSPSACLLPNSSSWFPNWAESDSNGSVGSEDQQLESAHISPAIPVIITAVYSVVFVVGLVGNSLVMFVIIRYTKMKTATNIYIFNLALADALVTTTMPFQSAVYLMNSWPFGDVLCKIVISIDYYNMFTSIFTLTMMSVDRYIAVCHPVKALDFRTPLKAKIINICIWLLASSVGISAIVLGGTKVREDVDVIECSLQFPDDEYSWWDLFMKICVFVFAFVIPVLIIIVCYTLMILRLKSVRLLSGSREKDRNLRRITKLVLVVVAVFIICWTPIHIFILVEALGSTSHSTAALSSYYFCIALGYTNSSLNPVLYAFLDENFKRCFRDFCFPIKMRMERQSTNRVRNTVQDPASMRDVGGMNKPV
Here, each record is paired with measured Ki data.

Compound | Result unit | Ki
Oc1ccc2c3c1O[C@H]1c4[nH]cc(-c5ccccc5)c4C[C@@]4(O)C(C2)N(CC2CC2)CCC314 (stereo not given in full) | nM | 45
CCCCc1c(C)[nH]c2c1C[C@@]1(O)C3Cc4ccc(O)c5c4C1(CCN3CC1CC1)[C@H]2O5 (stereo not given in full) | nM | 39
Cc1[nH]c2c(c1Cc1ccccc1)C[C@@]1(O)C3Cc4ccc(O)c5c4C1(CCN3CC1CC1)[C@H]2O5 (stereo not given in full) | nM | 41
Oc1ccc2c3c1O[C@H]1c4[nH]c5ccccc5c4C[C@@]4(O)[C@@H](C2)N(CC2CC2)CC[C@]314 [NALTRINDOLE] | nM | 355
Cc1[nH]c2c(c1C)C[C@@]1(O)C3Cc4ccc(O)c5c4C1(CCN3CC1CC1)[C@H]2O5 (stereo not given in full) | nM | 22

* * *

Target: Delta-type opioid receptor (Mus musculus)
Sequence (P32300 whole entry): as the sequence (P32300 whole entry) above
Test: Binding affinity against Opioid receptor delta 1 receptor binding in ICR mouse brain membranes using the radioligand [3H]naltrindole
log10 Ki values by entry
Property label: log10 Ki (log10 of the value in pM)

Compound | log10 Ki
CCCCc1c(C)[nH]c2c1C[C@@]1(O)C3Cc4ccc(O)c5c4C1(CCN3CC1CC1)[C@H]2O5 (stereo not given in full) | 4.08
Cc1[nH]c2c(c1C)C[C@@]1(O)C3Cc4ccc(O)c5c4C1(CCN3CC1CC1)[C@H]2O5 (stereo not given in full) | 2.61
Cc1[nH]c2c(c1Cc1ccccc1)C[C@@]1(O)C3Cc4ccc(O)c5c4C1(CCN3CC1CC1)[C@H]2O5 (stereo not given in full) | 2.54
Oc1ccc2c3c1O[C@H]1c4[nH]cc(-c5ccccc5)c4C[C@@]4(O)C(C2)N(CC2CC2)CCC314 (stereo not given in full) | 3.43
Oc1ccc2c3c1O[C@H]1c4[nH]c5ccccc5c4C[C@@]4(O)[C@@H](C2)N(CC2CC2)CC[C@]314 | 1.60

* * *

Biological target: Delta-type opioid receptor (Homo sapiens) (UniProt P41143)
Sequence (P41143 whole entry): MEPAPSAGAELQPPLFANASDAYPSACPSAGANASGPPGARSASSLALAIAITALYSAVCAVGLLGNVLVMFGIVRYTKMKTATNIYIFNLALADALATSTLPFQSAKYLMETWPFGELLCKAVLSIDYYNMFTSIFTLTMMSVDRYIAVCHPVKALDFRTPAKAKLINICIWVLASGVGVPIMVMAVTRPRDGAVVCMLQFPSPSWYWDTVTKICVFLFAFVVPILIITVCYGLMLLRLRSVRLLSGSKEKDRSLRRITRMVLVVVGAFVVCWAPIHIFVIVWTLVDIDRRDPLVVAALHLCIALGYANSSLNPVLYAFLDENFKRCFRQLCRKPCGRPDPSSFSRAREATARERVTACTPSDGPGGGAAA
Assay: Selectivity ratio measured as the kappa Ki to that of delta Ki values.
Listed here: items and their measured Selectivity ratio.

Compound | Selectivity ratio
Oc1ccc2c3c1O[C@H]1c4[nH]cc(-c5ccccc5)c4C[C@@]4(O)C(C2)N(CC2CC2)CCC314 (some centres undefined) | 16.7
CCCCc1c(C)[nH]c2c1C[C@@]1(O)C3Cc4ccc(O)c5c4C1(CCN3CC1CC1)[C@H]2O5 (some centres undefined) | 3.3
Cc1[nH]c2c(c1C)C[C@@]1(O)C3Cc4ccc(O)c5c4C1(CCN3CC1CC1)[C@H]2O5 (some centres undefined) | 53.7
Cc1[nH]c2c(c1Cc1ccccc1)C[C@@]1(O)C3Cc4ccc(O)c5c4C1(CCN3CC1CC1)[C@H]2O5 (some centres undefined) | 117
